B1: Azoarcus group I ribozyme (parent)
chain: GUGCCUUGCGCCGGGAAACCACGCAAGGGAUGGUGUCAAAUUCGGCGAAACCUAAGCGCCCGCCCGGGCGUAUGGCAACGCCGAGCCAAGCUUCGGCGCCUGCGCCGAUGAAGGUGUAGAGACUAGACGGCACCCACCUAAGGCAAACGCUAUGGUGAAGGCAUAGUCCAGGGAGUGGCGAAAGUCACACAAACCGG

# Variants of: B1
# protocol details: reverse-splicing fitness (ratio to wild type); higher = more active; in vitro selection; Mg2+ level not given
Label rule, in plain words: reverse-splicing fitness of 0.01 and up is 1, under 0.01 is -1.

{"mutation notation": "C82G A111G C150U C169G U176G", "category label": -1}
{"mutation notation": "C82U A111U A120U A145G U176G", "category label": -1}
{"mutation notation": "C82G A111G A120U A145C U176C", "category label": 1}
{"mutation notation": "A111U A120C A145C C150G C169A U176C", "category label": -1}
{"mutation notation": "A111G A120G C169A", "category label": 1}
{"mutation notation": "A111U A120G A145U C150G", "category label": 1}

Sourced from the RNAGym collection of RNA variant scans (doi:10.1093/molbev/msab373)
